molecular target: protein kinase A, catalytic subunit; test: cell-based or functional assay
Where no end group is shown, it is not given here. Side-chain parts run from the residue outwards. [ ]: non-standard residue; d: D form. The star is where a group is joined. X1 = 5‑aminoethylsulfonamide isoquinoline, O=S(=O)(NCCN*)c1cccc2cnccc12; hLeu = CC(C)CC[C@H](N)C(=O)O; Nle = CCCC[C@H](N)C(=O)O; Orn = NCCC[C@H](N)C(=O)O; Dab = NCC[C@H](N)C(=O)O; Nva = CCC[C@H](N)C(=O)O; βAla = NCCC(=O)O
Hi there, I'd appreciate the recorded IC50 PKA for every entry that follows.
Answers are plain numbers, in nM.

Some solved entries appear below for comparison.
RPR[Nle]E([Gly-X1])[Dab][hLeu] (not fully specified (C-terminus)) [TY-60020-58] ... 50
RPR[Nle]E([Gly-X1])[Orn]F (not fully specified (C-terminus)) [TY-60020-59] ... 200
RPR[Nle]E([Gly-X1])[Dab]F (not fully specified (C-terminus)) [TY-60020-57] ... 210
RPR[Orn]E([Gly-X1])[Dab][hLeu] (not fully specified (C-terminus)) [TY-60020-42] ... 50

Please examine the following record next.
Can you look up the measured IC50 PKA of RPR[Nle]E([βAla-X1])[Nva]F (not fully specified (C-terminus)) [TY-60020-95] for me? 2000
